pEC50 values by entry
Biological target: hGIPR (Homo sapiens)
Construct: expressed in transfected cells; host or cells: CHO cells carrying a CRE-luciferase reporter gene
Sequence (P48546 22-466): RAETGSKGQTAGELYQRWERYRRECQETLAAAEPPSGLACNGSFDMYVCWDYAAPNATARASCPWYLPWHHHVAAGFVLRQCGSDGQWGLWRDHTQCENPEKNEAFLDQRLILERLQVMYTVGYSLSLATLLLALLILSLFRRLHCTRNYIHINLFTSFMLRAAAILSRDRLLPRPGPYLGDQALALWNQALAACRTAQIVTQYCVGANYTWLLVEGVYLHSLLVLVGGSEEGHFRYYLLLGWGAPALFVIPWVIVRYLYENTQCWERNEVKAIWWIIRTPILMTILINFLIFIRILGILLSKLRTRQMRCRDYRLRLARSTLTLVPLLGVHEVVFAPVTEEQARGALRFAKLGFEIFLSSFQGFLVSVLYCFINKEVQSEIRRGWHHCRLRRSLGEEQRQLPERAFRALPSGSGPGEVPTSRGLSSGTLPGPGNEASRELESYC
Assay: hGIPR CreLuc reporter gene assay in 0.5% and 100% plasma
Format: cell-based
Details: CreLuc reporter gene assay, 0.5% human plasma; read-out: hGIPR 0.5% hP
Protocol: Example 1: hGLPR/hGIPR/hNPY2R CreLuc Assay in 0.5% and 100% Plasma CHO and HEK-293 recombinant cell lines express a luciferase reporter gene under control of the cAMP responsive element (CRE). […] Following incubation, assay plates are equilibrated to room temperature, followed by addition of 25 μl of Bright-GIo™ Luciferase reagent, incubation at room temperature for 10 minutes and analysis of luminescence (Envision Reader). […]
pEC50: −log10 of the molar value. Starred links: 1 amine or outer side, 2 acyl side, 3 side chain; linkers in the order of their positions; H or OH if unused. Positions of bridges follow the written chain, without caps; N, C: chain ends. Non-standard residues stand in square brackets, D forms with d. Groups on a side chain read outwards from the residue. Chains are numbered I, II in the order given. *: point of attachment. C20 diacid = O=C(O)CCCCCCCCCCCCCCCCCCC(=O)*; C18 diacid = O=C(O)CCCCCCCCCCCCCCCCC(=O)*; γGlu = O=C(O)[C@H](CCC(=O)[*:2])N[*:1]; εLys = N[C@@H](CCCCN[*:1])C(=O)[*:2]; AEEA = NCCOCCOCC(=O)O; Aib = CC(C)(N)C(=O)O
Reported endpoint: pEC50

* H-Y[Aib]EGTFTSDYSI[Aib]LEKQAQ[Aib]AFVEWLIK([εLys-γGlu-γGlu-γGlu-γGlu-γGlu-γGlu-C20 diacid])GGQSSGASLRHYYNWLTRQRY-NH2 [Compound 123] | 9.38
* I: H-Y[Aib]EGTFTSDYSI[Aib]LEKQAQ[Aib]EFVQWLIKGGPSEGASLRHYYNWLTRQRY-NH2 / II: {C18 diacid}-EEEEEE (amide I:28-II:C) [Compound 179] | 9.42
* H-Y[Aib]EGTFTSDYSI[Aib]LEKQAQ[Aib]AFVQWLIK([AEEA-AEEA-γGlu-γGlu-γGlu-γGlu-γGlu-C18 diacid])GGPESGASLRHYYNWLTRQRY-NH2 [Compound 55] | 9.92
* H-Y[Aib]EGTFTSDYSI[Aib]LEEQAQ[Aib]AFVEWLIK([εLys-AEEA-AEEA-γGlu-γGlu-γGlu-γGlu-C20 diacid])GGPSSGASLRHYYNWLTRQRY-NH2 [Compound 100] | 10.00
* H-Y[Aib]EGTFTSDYSI[Aib]LEKQAQ[Aib]AFVEWLIK([εLys-γGlu-γGlu-γGlu-γGlu-γGlu-γGlu-C20 diacid])GGPSSAVSLRHYYNWLTRQRY-NH2 [Compound 33] | 9.60
